# System: Saccharomyces cerevisiae
# assay-info: protein stability index of tFT-peptide fusion (C-terminal peptide) (PSI (0-1 scale)); higher = more stable (slower turnover)
# experimental-parameters: genetic background: das1 deletion; temperature: 30 C
value-kind: protein stability index
Quick one: just the number, no unit, thanks!

Reported protein stability index ( SLQVILEFVSQH [SXM1 C-terminal 12 aa] ) = 0.654

Reported protein stability index ( DKEQQQQQQQQP [ZDS1 C-terminal 12 aa] ) = 0.702

Reported protein stability index ( IKKRKVQNRAMS [YOL038C-A C-terminal 12 aa] ) = 0.701

Reported protein stability index ( NPWGGYSQVQSK [COX5A C-terminal 12 aa] ) = 0.728

Reported protein stability index ( SDHCWDGCWWCR [AQY2 C-terminal 12 aa] ) = 0.742

Reported protein stability index ( TLWNDNTSYPFL [PDR3 C-terminal 12 aa] ) = 0.756

Reported protein stability index ( PAAWRALTQYIS [PTH1 C-terminal 12 aa] ) = 0.719

Reported protein stability index ( REDDDEPASLDF [PRI1 C-terminal 12 aa] ) = 0.697

Reported protein stability index ( AGADNTARLWTT [ERB1 C-terminal 12 aa] ) = 0.722

Reported protein stability index ( LLAKQLLLLLLR [YER079C-A C-terminal 12 aa] ) = 0.33

Reported protein stability index ( QSRYDNSRANRR [RAT1 C-terminal 12 aa] ) = 0.726

Reported protein stability index ( NGKTIKDATDNK [COX19 C-terminal 12 aa] ) = 0.669

Reported protein stability index ( ILPIHQEDPANR [MEP1 C-terminal 12 aa] ) = 0.701

Reported protein stability index ( VIKCFTSSDMTS [NAG1 C-terminal 12 aa] ) = 0.701

Measured values drawn from the supplement of paper PMC10724198 for this set.
